The values you see were collected from the supplement of paper PMC7125110.

B1: glmS ribozyme (parent)
chain: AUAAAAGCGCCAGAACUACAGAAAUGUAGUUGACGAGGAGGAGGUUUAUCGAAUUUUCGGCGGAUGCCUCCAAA

# Variants of: B1
# assay.name: self-cleavage kobs at 2500 uM GlcN6P; higher = faster cleavage; RNA array
# assay.setup: with glucosamine-6-phosphate
Variants at the floor of the assay were thinned out.
self-cleavage kobs at 2500 uM GlcN6P overview
# unit: s⁻¹ | format: bare number

Known self-cleavage kobs at 2500 uM GlcN6P results, listed for orientation:
>  <variant.name>
C11A C67G

>  <unit.label>
s⁻¹

>  <test.result>
3.8e-05

$$$$
>  <variant.name>
A12G U46A

>  <unit.label>
s⁻¹

>  <test.result>
4.25e-05

$$$$

Form field: reported self-cleavage kobs at 2500 uM GlcN6P of G29U A39G U56A
0.00181

GET /values?readout=self-cleavage kobs at 2500 uM GlcN6P&item= C11A C68U
3.54e-05

What measured self-cleavage kobs at 2500 uM GlcN6P goes with A15C G40C ?
0.000234
